This collection of values is drawn from PubChem BioAssay AID1963974.

- Tested on: 648629-189-R-J1-PDC spheroids with HUVEC/MSC, viability
- TEST_SUMMARY: Anticancer human tumor 648629-189-R-J1-PDC patient-derived bladder carcinoma cell line growth inhibition [PI3K]
- CONDITION: second compound 0.1 µM; first compound 0.0316 µM; active compounds read low
Reported viability, T/C by item:
Dear colleague, please return just the value in %, with no unit written.

Worked examples, 4 compounds total:
CC(Cn1ccc(-c2ccc(C#N)c(Cl)c2)n1)NC(=O)c1cc(C(C)O)[nH]n1 (stereo unspecified) + CC(Nc1ncnc2nc[nH]c12)c1cc2cccc(Cl)c2c(=O)n1-c1ccccc1
99
CC(=O)c1c(C)c2cnc(Nc3ccc(N4CCNCC4)cn3)nc2n(C2CCCC2)c1=O + Cc1nc(NC(=O)N2CCCC2C(N)=O)sc1-c1ccnc(C(C)(C)C(F)(F)F)c1
107
CNC(=O)c1ccc(N2C(=S)N(c3ccc(C#N)c(C(F)(F)F)c3)C(=O)C2(C)C)cc1F + CC(Nc1ccc2c(c1)OCCn1cc(N3C(=O)OCC3C(F)F)nc1-2)C(N)=O
93
CC(Cn1ccc(-c2ccc(C#N)c(Cl)c2)n1)NC(=O)c1cc(C(C)O)[nH]n1 (stereo unspecified) + COc1c(OCCCN2CCOCC2)ccc2c3n(c(=NC(=O)c4cnc(N)nc4)nc12)CCN3
65.9

Please look at this compound and report its viability, T/C: Cn1nccc1Nc1nccc(-c2ccn(C(CO)c3ccc(Cl)c(F)c3)c(=O)c2)n1 (stereo unspecified) + COc1c(OCCCN2CCOCC2)ccc2c3n(c(=NC(=O)c4cnc(N)nc4)nc12)CCN3
70.1

Please look at this compound and report its viability, T/C: CC1(C)CCC(CN2CCN(c3ccc(C(=O)NS(=O)(=O)c4ccc(NCC5CCOCC5)c([N+](=O)[O-])c4)c(Oc4cnc5[nH]ccc5c4)c3)CC2)=C(c2ccc(Cl)cc2)C1 + Cc1nc(NC(=O)N2CCCC2C(N)=O)sc1-c1ccnc(C(C)(C)C(F)(F)F)c1
106

Please look at this compound and report its viability, T/C: C=CC(=O)N1CCN(c2nc(=O)n(-c3c(C)ccnc3C(C)C)c3nc(-c4c(O)cccc4F)c(F)cc23)C(C)C1 (stereo unspecified) + COc1c(OCCCN2CCOCC2)ccc2c3n(c(=NC(=O)c4cnc(N)nc4)nc12)CCN3
57.3

Please look at this compound and report its viability, T/C: CCCS(=O)(=O)Nc1ccc(F)c(C(=O)c2c[nH]c3ncc(-c4ccc(Cl)cc4)cc23)c1F + CC(Nc1ncnc2nc[nH]c12)c1cc2cccc(Cl)c2c(=O)n1-c1ccccc1
103

---

- Tested on: 648629-189-R-J1-PDC spheroids with HUVEC/MSC, viability
- TEST_SUMMARY: Anticancer human tumor 648629-189-R-J1-PDC cell line growth inhibition [PI3K];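 note: spheroids exposed to agents for seven days before reading; percent of vehicle control luminescence where 100% = DMSO treated spheroids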
- CONDITION: second compound 0.00316 µM; first compound 0.00316 µM; active compounds read low
MEASURED_QUANTITY: viability, T/C (%)
Dear colleague, please return just the value in %, with no unit written.

Cn1ncnc1[C@H]1c2n[nH]c(=O)c3cc(F)cc(c23)N[C@@H]1c1ccc(F)cc1 + COc1c(OCCCN2CCOCC2)ccc2c3n(c(=NC(=O)c4cnc(N)nc4)nc12)CCN3
106

Please look at this compound and report its viability, T/C: CCN1CCN(Cc2ccc(Nc3ncc(F)c(-c4cc(F)c5nc(C)n(C(C)C)c5c4)n3)nc2)CC1 + COc1c(OCCCN2CCOCC2)ccc2c3n(c(=NC(=O)c4cnc(N)nc4)nc12)CCN3
91

Please look at this compound and report its viability, T/C: CC(=O)c1c(C)c2cnc(Nc3ccc(N4CCNCC4)cn3)nc2n(C2CCCC2)c1=O + CC(Nc1ccc2c(c1)OCCn1cc(N3C(=O)OCC3C(F)F)nc1-2)C(N)=O
105

Please look at this compound and report its viability, T/C: CC(C)n1nc(-c2ccc3oc(N)nc3c2)c2c(N)ncnc21 + COc1c(OCCCN2CCOCC2)ccc2c3n(c(=NC(=O)c4cnc(N)nc4)nc12)CCN3
95.2

Please look at this compound and report its viability, T/C: CC(C)n1nc(-c2ccc3oc(N)nc3c2)c2c(N)ncnc21 + CC(Nc1ccc2c(c1)OCCn1cc(N3C(=O)OCC3C(F)F)nc1-2)C(N)=O
94.7

Please look at this compound and report its viability, T/C: CCN1CCN(Cc2ccc(Nc3ncc(F)c(-c4cc(F)c5nc(C)n(C(C)C)c5c4)n3)nc2)CC1 + CC(Nc1ccc2c(c1)OCCn1cc(N3C(=O)OCC3C(F)F)nc1-2)C(N)=O
105

Please look at this compound and report its viability, T/C: CC(=O)c1c(C)c2cnc(Nc3ccc(N4CCNCC4)cn3)nc2n(C2CCCC2)c1=O + COc1c(OCCCN2CCOCC2)ccc2c3n(c(=NC(=O)c4cnc(N)nc4)nc12)CCN3
99.6

Please look at this compound and report its viability, T/C: Cn1ncnc1[C@H]1c2n[nH]c(=O)c3cc(F)cc(c23)N[C@@H]1c1ccc(F)cc1 + CC(Nc1ccc2c(c1)OCCn1cc(N3C(=O)OCC3C(F)F)nc1-2)C(N)=O
102

---

- Test system: 648629-189-R-J1-PDC spheroids with HUVEC/MSC, viability
- TEST_SUMMARY: Anticancer human tumor 648629-189-R-J1-PDC cell line growth inhibition [PI3K];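 note: spheroids exposed to agents for seven days before reading; percent of vehicle control luminescence where 100% = DMSO treated spheroids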
- CONDITION: second compound 3.16 µM; first compound 0.000316 µM; active compounds read low
Reported viability, T/C by item:
Dear colleague, please return just the value in %, with no unit written.

Worked examples, 5 compounds total:
CC(C)n1nc(-c2ccc3oc(N)nc3c2)c2c(N)ncnc21 + Cc1nc(NC(=O)N2CCCC2C(N)=O)sc1-c1ccnc(C(C)(C)C(F)(F)F)c1
63.9
Cn1ncnc1[C@H]1c2n[nH]c(=O)c3cc(F)cc(c23)N[C@@H]1c1ccc(F)cc1 + Cc1nc(NC(=O)N2CCCC2C(N)=O)sc1-c1ccnc(C(C)(C)C(F)(F)F)c1
64.4
Cn1ncnc1[C@H]1c2n[nH]c(=O)c3cc(F)cc(c23)N[C@@H]1c1ccc(F)cc1 + CC(Nc1ncnc2nc[nH]c12)c1cc2cccc(Cl)c2c(=O)n1-c1ccccc1
96.4
CC(=O)c1c(C)c2cnc(Nc3ccc(N4CCNCC4)cn3)nc2n(C2CCCC2)c1=O + Cc1nc(NC(=O)N2CCCC2C(N)=O)sc1-c1ccnc(C(C)(C)C(F)(F)F)c1
52.6
CC(C)n1nc(-c2ccc3oc(N)nc3c2)c2c(N)ncnc21 + CC(Nc1ncnc2nc[nH]c12)c1cc2cccc(Cl)c2c(=O)n1-c1ccccc1
85.8

Please look at this compound and report its viability, T/C: CC(=O)c1c(C)c2cnc(Nc3ccc(N4CCNCC4)cn3)nc2n(C2CCCC2)c1=O + CC(Nc1ncnc2nc[nH]c12)c1cc2cccc(Cl)c2c(=O)n1-c1ccccc1
90.8

---

- Tested on: 648629-189-R-J1-PDC spheroids with HUVEC/MSC, viability
- TEST_SUMMARY: Anticancer human tumor 648629-189-R-J1-PDC cell line growth inhibition [PI3K];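 note: spheroids exposed to agents for seven days before reading; percent of vehicle control luminescence where 100% = DMSO treated spheroids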
- CONDITION: second compound 0.00316 µM; first compound 1 µM; active compounds read low
Reported viability, T/C by item:

Worked examples, 2 compounds total:
Cn1ncc(Cl)c1-c1cc(C(=O)NC(CN)Cc2cccc(F)c2)sc1Cl (centres undefined) + COc1c(OCCCN2CCOCC2)ccc2c3n(c(=NC(=O)c4cnc(N)nc4)nc12)CCN3
40.3%
CCN1CCN(Cc2ccc(Nc3ncc(F)c(-c4cc(F)c5nc(C)n(C(C)C)c5c4)n3)nc2)CC1 + COc1c(OCCCN2CCOCC2)ccc2c3n(c(=NC(=O)c4cnc(N)nc4)nc12)CCN3
104%

With 648629-189-R-J1-PDC spheroids with HUVEC/MSC, viability as the test system, provide measured viability, T/C for this compound: C=CC(=O)N1CCN(c2nc(=O)n(-c3c(C)ccnc3C(C)C)c3nc(-c4c(O)cccc4F)c(F)cc23)C(C)C1 (centres undefined) + CC(Nc1ccc2c(c1)OCCn1cc(N3C(=O)OCC3C(F)F)nc1-2)C(N)=O
105%

With 648629-189-R-J1-PDC spheroids with HUVEC/MSC, viability as the test system, provide measured viability, T/C for this compound: CC(Cn1ccc(-c2ccc(C#N)c(Cl)c2)n1)NC(=O)c1cc(C(C)O)[nH]n1 (centres undefined) + CC(Nc1ccc2c(c1)OCCn1cc(N3C(=O)OCC3C(F)F)nc1-2)C(N)=O
90.1%

With 648629-189-R-J1-PDC spheroids with HUVEC/MSC, viability as the test system, provide measured viability, T/C for this compound: CNC(=O)c1ccc(N2C(=S)N(c3ccc(C#N)c(C(F)(F)F)c3)C(=O)C2(C)C)cc1F + CC(Nc1ccc2c(c1)OCCn1cc(N3C(=O)OCC3C(F)F)nc1-2)C(N)=O
97.6%

With 648629-189-R-J1-PDC spheroids with HUVEC/MSC, viability as the test system, provide measured viability, T/C for this compound: Cn1nccc1Nc1nccc(-c2ccn(C(CO)c3ccc(Cl)c(F)c3)c(=O)c2)n1 (centres undefined) + CC(Nc1ccc2c(c1)OCCn1cc(N3C(=O)OCC3C(F)F)nc1-2)C(N)=O
109%

With 648629-189-R-J1-PDC spheroids with HUVEC/MSC, viability as the test system, provide measured viability, T/C for this compound: Cn1nccc1Nc1nccc(-c2ccn(C(CO)c3ccc(Cl)c(F)c3)c(=O)c2)n1 (centres undefined) + COc1c(OCCCN2CCOCC2)ccc2c3n(c(=NC(=O)c4cnc(N)nc4)nc12)CCN3
103%

With 648629-189-R-J1-PDC spheroids with HUVEC/MSC, viability as the test system, provide measured viability, T/C for this compound: CCCS(=O)(=O)Nc1ccc(F)c(C(=O)c2c[nH]c3ncc(-c4ccc(Cl)cc4)cc23)c1F + CC(Nc1ccc2c(c1)OCCn1cc(N3C(=O)OCC3C(F)F)nc1-2)C(N)=O
106%
